Entry source: PubChem BioAssay (NCI)

Test system: IGROV1 ovarian
test.protocol: NCI-60 one-dose screen, 48 h (100 = growth as untreated, 0 = no growth, -100 = all killed)
test.settings: 10 µM unless noted
Compounds without any hit were thinned out: in the full panel of roughly 83,000, 20% have a hit.
Just so you know, the groups by growth go like this: low band (below 40%), middle band (40% to below 80%), high band (80% or more)

Consider the following illustrative entries.
C=C1CC[C@@H]2[C@]3(C)COC(c4cn(-c5ccccc5)nc4-c4cccc([N+](=O)[O-])c4)O[C@@H]3CC[C@@]2(C)[C@@H]1C/C=C1/C(=O)OC[C@H]1O (stereo partly specified)	low band
CCOC(=O)/C=C/c1cccc2c1C(=O)NC(C)(c1cc3cc(Cl)ccc3oc1=O)N2 (stereo unspecified)	low band
C#CCOc1ccc(/C=N/Nc2nc(-c3ccc(F)cc3)cs2)cc1OC	middle band
NS(=O)(=O)c1ccc(N=Nc2c(O)n(CC(=O)Nc3ccccc3Cl)c3ccccc23)cc1	low band
Cc1c(C(=O)NNC(=O)Nc2ccc(Cl)cc2)nnn1-c1ccc(Br)cc1	high band

q: Which growth band matches Cc1ccc(S(=O)(=O)c2nc(S(=O)(=O)c3ccc(C)cc3)c(N3CCN(C)CC3)s2)cc1 ?
a: middle band

q: Please report the category associated with COc1ccc(CCC2c3c(cc4c(c3OC)OCO4)CCN2C)cc1 (stereo unspecified) , nothing else.
a: low band

q: GET /class?item= COc1cc(CNC(=O)/C=C/c2ccc3c(c2)OCO3)ccc1OCc1cn(-c2cccc(C(F)(F)F)c2)nn1
a: middle band

q: Quick check: band for O=C(Cn1c(/C=C/c2ccccc2)nc2ccccc2c1=O)Nc1ccccc1
a: high band

q: Please indicate the class for CC(=O)Nc1cccc(Nc2nc(N[C@H]3CCCc4ccccc43)c3ccccc3n2)c1 based on its growth.
a: high band

----------
Test system: MOLT-4 leukemia
test.protocol: NCI-60 one-dose screen, 48 h (100 = growth as untreated, 0 = no growth, -100 = all killed)
test.settings: 10 µM unless noted
This is part of a sample that, as a whole, favours compounds with a hit. Of some 83,000 tested, about 20% had one in any assay.
hey, just use met if measured growth is less than 30%, otherwise not met

Below, 4 compounds whose answers are already recorded.
CC(=O)Nc1ccc(-c2nc3cc(-c4ccc(O)cc4)ccc3n2C)cc1	met
O=C(NNc1ccccc1)n1c(=O)c2ccccc2c(=O)n1-c1ccccc1	not met
Cn1cc(-c2nnc(N)nc2-c2c[nH]c3ccc(Br)cc23)c2cc(Br)cnc21	met
Nc1nc(-c2ccccc2)c(N=Nc2ccc(Cl)cc2[N+](=O)[O-])s1	not met

q: Quick check: growth of CCOC(=O)COc1c(OC)c(OC)cc2oc(-c3cccc(C(=O)Nc4ccc(Cl)cc4)c3)cc(=O)c12 under 30%?
a: met

q: Does the reported growth of O=c1oc2ccccc2cc1-c1csc(N=Nc2c(O)[nH]c3ccc(Cl)cc23)n1 stay below 30%?
a: not met

q: Here's an entry: O=C(/C=C/c1ccc(-c2ccccc2)cc1)c1nc2ccccc2n1Cc1ccc(Br)cc1 . Is its growth below 30%?
a: met

q: Hi there! Is growth for O=C(Nc1ccccc1)N1CCN(c2cc(-c3cn(-c4ccccc4)nc3-c3cccc(O)c3)ccn2)CC1 below 30%, do you know?
a: not met

q: Item COc1cc2c(c(OC)c1OC)C(=O)CC(c1cccc(NC(=O)c3cccc(NC(=O)[C@H](C)NC(=O)OC(C)(C)C)c3)c1)O2 (some centres undefined) : growth beneath 30%, strictly?
a: not met
